The reported measurements were obtained from paper PMC7240809.

- assayComment: Biodistribution in C57BL/6J mice bearing B16–F10 melanoma
- Type: in vivo
- experimentalParameters: C57BL/6J, mouse, intestine, intravenous, total radioactivity
measuredAttribute: tissue uptake at 1 h (%ID/g)
Please reply with the bare figure in %ID/g and do not write the unit itself.

Fill in the blank: the reported tissue uptake at 1 h of CCCC[C@H](NC(=O)CN1CCC(NC(=O)CN2CCN(CC(=O)O)CCN(CC(=O)O)CCN(CC(=O)O)CC2)CC1)C(=O)N[C@H]1CC(=O)NCCCC[C@@H](C(N)=O)N(C)C(=O)[C@H](Cc2c[nH]c3ccccc23)N(C)C(=O)[C@H](CCCNC(=N)N)N(C)C(=O)[C@@H](Cc2ccccc2)NC(=O)[C@H](Cc2cnc[nH]2)N(C)C1=O [[^68Ga]Ga-CCZ01099, metal not drawn] is ____.
0.34

* * *

- assayComment: Biodistribution in C57BL/6J mice bearing B16–F10 melanoma
- Assay type: in vivo
- experimentalParameters: C57BL/6J, mouse, tumor and bone, iv, total radioactivity
measuredAttribute: tissue to tissue ratio at 2 h
# answer = number (no unit)

Item under review: CCCC[C@H](NC(=O)CN1CCC(NC(=O)CN2CCN(CC(=O)O)CCN(CC(=O)O)CCN(CC(=O)O)CC2)CC1)C(=O)N[C@H]1CC(=O)NCCCC[C@@H](C(N)=O)N(C)C(=O)[C@H](Cc2c[nH]c3ccccc23)N(C)C(=O)[C@H](CCCNC(=N)N)N(C)C(=O)[C@@H](Cc2ccccc2)NC(=O)[C@H](Cc2cnc[nH]2)N(C)C1=O [[^68Ga]Ga-CCZ01099, metal not drawn] . Reported tissue to tissue ratio at 2 h?
52.7

* * *

- assayComment: Biodistribution in C57BL/6J mice bearing B16–F10 melanoma
- Format: in vivo
- experimentalParameters: C57BL/6J, mouse, tumor and bone, iv, total radioactivity
measuredAttribute: tissue to tissue ratio at 1 h
Please give the numeric answer without any surrounding text.

Which measured tissue to tissue ratio at 1 h value corresponds to CCCC[C@H](NC(=O)CN1CCC(NC(=O)CN2CCN(CC(=O)O)CCN(CC(=O)O)CCN(CC(=O)O)CC2)CC1)C(=O)N[C@H]1CC(=O)NCCCC[C@@H](C(N)=O)N(C)C(=O)[C@H](Cc2c[nH]c3ccccc23)N(C)C(=O)[C@H](CCCNC(=N)N)N(C)C(=O)[C@@H](Cc2ccccc2)NC(=O)[C@H](Cc2cnc[nH]2)N(C)C1=O [[^68Ga]Ga-CCZ01099, metal not drawn] ?
23.3

* * *

- assayComment: Biodistribution in C57BL/6J mice bearing B16–F10 melanoma
- Type: in vivo
- experimentalParameters: male, C57BL/6J, mouse, testes, intravenous, total radioactivity
measuredAttribute: tissue uptake at 2 h (%ID/g)
Write it as a number; the unit %ID/g goes unstated.

Quick check: tissue uptake at 2 h of CCCC[C@H](NC(=O)CN1CCC(NC(=O)CN2CCN(CC(=O)O)CCN(CC(=O)O)CCN(CC(=O)O)CC2)CC1)C(=O)N[C@H]1CC(=O)NCCCC[C@@H](C(N)=O)N(C)C(=O)[C@H](Cc2c[nH]c3ccccc23)N(C)C(=O)[C@H](CCCNC(=N)N)N(C)C(=O)[C@@H](Cc2ccccc2)NC(=O)[C@H](Cc2cnc[nH]2)N(C)C1=O [[^68Ga]Ga-CCZ01099, metal not drawn] ?
0.07
